Tested on: AncSZ
Assay: phosphorylation enrichment, bacterial display (enrichment ratio); higher = better substrate or ligand; peptides without Tyr show the background;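 also: 11-residue human phosphosite peptides and single-mutation variants displayed on the E. coli surface, counted by deep sequencing, each peptide's frequency after selection divided by its frequency in the unselected input library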;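 also: frequency after pTyr selection over input frequency; kinase dosed for 20-30% of maximal phosphorylation in three min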
Assign criterion met to entries whose phosphorylation enrichment meets or exceeds 0.8; assign criterion not met to the rest.

A selection of reference data follows.
SEQUENCE_DATA	ASSIGNED_LABEL
KLLLKYSFHDV [RNF213_Y4141]	criterion met
RLPINYTTRRI [LAMA2_Y2894_G2889R]	criterion met
LKVDVYRRSHK [FUT3_Y222_G223R]	criterion met
VGTTAYMAPEA [IRAK4_Y354]	criterion not met
VNFGAYINDFN [GLB1_Y488_K493N_YF]	criterion met
TKDTFYKQPMF [GBA_Y451]	criterion not met
GLSDLYVKIHL [SYT2_Y309_P308L]	criterion met
EADRKYEEVAH [TPM3_Y163_R168H]	criterion met

Evaluate TEYIQYMRRKN [MAX_Y73] : phosphorylation enrichment at minimum 0.8?
criterion not met

Hello, I need to know if SKNSKYNAEST [PSEN1_Y315] has measured phosphorylation enrichment not below 0.8. Thanks!
criterion not met

###

Biological target: FGFR1 (UniProt P11362)
Sequence (P11362 whole entry, looked up): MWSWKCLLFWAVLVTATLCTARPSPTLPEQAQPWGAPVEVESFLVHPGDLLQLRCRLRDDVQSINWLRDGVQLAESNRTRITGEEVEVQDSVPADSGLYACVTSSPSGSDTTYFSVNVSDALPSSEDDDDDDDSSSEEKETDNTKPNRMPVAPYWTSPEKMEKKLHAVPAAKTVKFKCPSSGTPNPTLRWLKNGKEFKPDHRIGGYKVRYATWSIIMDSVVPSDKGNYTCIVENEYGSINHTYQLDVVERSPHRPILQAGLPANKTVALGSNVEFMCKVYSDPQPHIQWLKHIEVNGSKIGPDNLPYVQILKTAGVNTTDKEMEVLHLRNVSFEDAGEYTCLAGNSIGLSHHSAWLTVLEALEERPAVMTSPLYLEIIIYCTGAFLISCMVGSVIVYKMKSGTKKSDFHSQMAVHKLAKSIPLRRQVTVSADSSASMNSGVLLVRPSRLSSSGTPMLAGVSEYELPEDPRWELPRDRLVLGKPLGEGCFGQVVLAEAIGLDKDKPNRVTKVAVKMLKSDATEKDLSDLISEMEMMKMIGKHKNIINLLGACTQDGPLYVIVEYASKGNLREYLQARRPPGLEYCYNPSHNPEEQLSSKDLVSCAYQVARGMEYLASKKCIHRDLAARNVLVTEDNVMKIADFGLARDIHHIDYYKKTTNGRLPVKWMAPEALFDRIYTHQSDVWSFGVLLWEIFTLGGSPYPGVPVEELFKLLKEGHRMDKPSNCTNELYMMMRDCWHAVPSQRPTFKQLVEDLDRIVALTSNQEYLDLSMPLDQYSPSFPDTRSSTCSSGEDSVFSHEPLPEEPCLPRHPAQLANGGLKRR
Assay: phosphorylation enrichment, bacterial display (enrichment ratio); higher = better substrate or ligand; peptides without Tyr show the background
Recorded measurements of phosphorylation enrichment, one per entry
Reply with just the number.

Previously resolved entries follow.
SEQUENCE_DATA	ASSAY_SYSTEM	phosphorylation enrichment
FTRNFYVQAVL [CYBA_Y88_R90Q_YF]	FGFR1 (UniProt P11362)	0.563
MVIPNYSSWTE [UROC1_Y185_R188W]	FGFR1 (UniProt P11362)	1.11
FCRHNYGVVES [HLA-DRB1_Y112_YF]	FGFR1 (UniProt P11362)	0.587
SRASYYRKGGC [ALK_Y1283_Y1278S]	FGFR1 (UniProt P11362)	0.414
KAWTIYRPEDS [ZBP1_Y165]	FGFR1 (UniProt P11362)	0.539
SGTYQYIIAKF [FOXL2_Y83_I80T]	FGFR1 (UniProt P11362)	3.65
RGFRQYAFDGK [HLA-A_Y140_D140Y_YF]	FGFR1 (UniProt P11362)	0.557
MSGDVYSTDYY [NTRK2_Y702_R699G]	FGFR1 (UniProt P11362)	3.16
YGMSSYITRED [FNDC3B_Y180_T179S]	FGFR1 (UniProt P11362)	0.529
ILKPDYQPLAI [HYDIN_Y1072]	FGFR1 (UniProt P11362)	0.376

Now, please, on to the next sequence.
State its phosphorylation enrichment for this sequence: VIKDKYPKVRF [APTX_Y209_A212V_YF]
0.444

###

Test system: c-Abl (mouse)
Experiment: phosphorylation enrichment, bacterial display (enrichment ratio); higher = better substrate or ligand; peptides without Tyr show the background
# if value of phosphorylation enrichment reaches 0.8, tag Criterion met; if it stays below, tag Criterion not met

Worked examples, 2 sequences total:
SEQUENCE_DATA	ASSAY_SYSTEM	ASSIGNED_LABEL
ETGEPCRLSPE [EIF4G1_Y311_Y311C]	c-Abl (mouse)	Criterion met
FASALYRQRRS [FGF11_Y162_YF]	c-Abl (mouse)	Criterion not met

Would you say IEDPYYGNDSD [ACP1_Y133] shows phosphorylation enrichment at minimum 0.8?
Criterion met

phosphorylation enrichment >= 0.8 for GINDDYGQLKN [NBN_Y679] ?
Criterion not met

Decide: phosphorylation enrichment of EQWRAYLEGTC [HLA-C_Y183_L180W] >= 0.8?
Criterion met

Confirm if phosphorylation enrichment reported for the sequence CTTIHYNFRCN [TP53_Y234_M237R_YF] is 0.8 or above.
Criterion not met

Is phosphorylation enrichment for GCRSKHVGLWG [KCNQ1_Y184_Y184H] at or above 0.8?
Criterion not met

Could you verify whether the entry FADIAYNFRRG [PAH_Y166_H170R_YF] shows phosphorylation enrichment of no less than 0.8?
Criterion not met

Check if phosphorylation enrichment >= 0.8 (inclusive). Item: SSNLFYRCLTA [CNGA3_Y169_W171C_YF]
Criterion met

###

Biological target: Hck (UniProt P08631)
Sequence (P08631 whole entry, looked up): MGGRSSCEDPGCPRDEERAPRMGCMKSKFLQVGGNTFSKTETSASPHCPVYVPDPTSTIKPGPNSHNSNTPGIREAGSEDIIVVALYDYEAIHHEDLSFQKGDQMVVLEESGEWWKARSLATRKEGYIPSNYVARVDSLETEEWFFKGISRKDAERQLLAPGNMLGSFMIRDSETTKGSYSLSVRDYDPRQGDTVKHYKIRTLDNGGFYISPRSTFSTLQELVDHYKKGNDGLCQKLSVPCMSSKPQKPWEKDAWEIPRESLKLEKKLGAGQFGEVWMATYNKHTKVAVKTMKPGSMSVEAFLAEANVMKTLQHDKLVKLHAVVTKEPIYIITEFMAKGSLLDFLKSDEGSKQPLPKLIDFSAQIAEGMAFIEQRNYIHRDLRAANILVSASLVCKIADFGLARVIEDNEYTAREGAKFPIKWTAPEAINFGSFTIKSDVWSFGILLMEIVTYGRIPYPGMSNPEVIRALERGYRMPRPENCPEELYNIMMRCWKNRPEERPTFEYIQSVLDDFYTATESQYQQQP
Assay: phosphorylation enrichment, bacterial display (enrichment ratio); higher = better substrate or ligand; peptides without Tyr show the background
Would you mind labelling by phosphorylation enrichment? At or over 0.4 is MET, under is NOT MET.

SEQUENCE_DATA	ASSIGNED_LABEL
VDGFVYKLHPS [GCK_Y413_S411F]	MET
ETGEPCRLSPE [EIF4G1_Y311_Y311C]	MET

Reported phosphorylation enrichment at or above 0.4? GIFSGYDDAWD [POLR1C_Y36_N32I_YF]
MET

Hello, I need to know if TQPSPYAVYRF [RPGRIP1_Y823] has measured phosphorylation enrichment not below 0.4. Thanks!
MET

Does YGMSSYITRED [FNDC3B_Y180_T179S] have a reported phosphorylation enrichment of at least 0.4?
MET

Is the recorded value of phosphorylation enrichment equal to or greater than 0.4 for this sequence? SGPRRYTIAAL [TTR_Y125]
NOT MET

###

Known phosphorylation enrichment of a selection of sequences
Test system: c-Abl (mouse)
Assay: phosphorylation enrichment, bacterial display (enrichment ratio); higher = better substrate or ligand; peptides without Tyr show the background
Keep it simple and answer with nothing but the number.

Look over these answered cases.
SEQUENCE_DATA	ASSAY_SYSTEM	ASSAY_RESULT
KDAGDYKCKAK [LRIT3_Y326]	c-Abl (mouse)	0.654
PIYEGYALPHA [ACTA1_Y171]	c-Abl (mouse)	31.3
HNVPIYEGFAL [ACTA1_Y168_YF]	c-Abl (mouse)	23.5
SVVVPYEPHEV [TP53_Y220_P223H]	c-Abl (mouse)	0.803
RNNIEYVRDIG [MUSK_Y577]	c-Abl (mouse)	0.602
CHSDDYVHISL [TSC1_Y406]	c-Abl (mouse)	0.781

Give the observed phosphorylation enrichment of ANARMYGVLPW [PLP1_Y207_D203N] for c-Abl (mouse).
0.846

Given ENRKFYMDLKE [PURA_Y156_YF] , report its phosphorylation enrichment on c-Abl (mouse).
0.557

Jot down phosphorylation enrichment (c-Abl (mouse)) of DQNVEYKGTVW [FHL1_Y117] .
0.843

GET phosphorylation enrichment | system: c-Abl (mouse) | item: LLASRYDSPIN [ABLIM1_Y638]
1.13

GET phosphorylation enrichment where system = c-Abl (mouse) and item = LIDGYYRLTAD [JAK2_Y373]
1

Provide the reported phosphorylation enrichment (system: c-Abl (mouse)) for VMTVDYSKTVV [SETD2_Y770]
0.574

Fetch value of phosphorylation enrichment on c-Abl (mouse) for FSMGCYEISLG [HMGCL_Y198_YF] .
0.965

// fetch phosphorylation enrichment; item: IVKAYYVHARA [AIPL1_Y268_R270H] ; system: c-Abl (mouse)
0.663

###

Biological target: EPHB1 (UniProt P54762)
Sequence (P54762 whole entry, looked up): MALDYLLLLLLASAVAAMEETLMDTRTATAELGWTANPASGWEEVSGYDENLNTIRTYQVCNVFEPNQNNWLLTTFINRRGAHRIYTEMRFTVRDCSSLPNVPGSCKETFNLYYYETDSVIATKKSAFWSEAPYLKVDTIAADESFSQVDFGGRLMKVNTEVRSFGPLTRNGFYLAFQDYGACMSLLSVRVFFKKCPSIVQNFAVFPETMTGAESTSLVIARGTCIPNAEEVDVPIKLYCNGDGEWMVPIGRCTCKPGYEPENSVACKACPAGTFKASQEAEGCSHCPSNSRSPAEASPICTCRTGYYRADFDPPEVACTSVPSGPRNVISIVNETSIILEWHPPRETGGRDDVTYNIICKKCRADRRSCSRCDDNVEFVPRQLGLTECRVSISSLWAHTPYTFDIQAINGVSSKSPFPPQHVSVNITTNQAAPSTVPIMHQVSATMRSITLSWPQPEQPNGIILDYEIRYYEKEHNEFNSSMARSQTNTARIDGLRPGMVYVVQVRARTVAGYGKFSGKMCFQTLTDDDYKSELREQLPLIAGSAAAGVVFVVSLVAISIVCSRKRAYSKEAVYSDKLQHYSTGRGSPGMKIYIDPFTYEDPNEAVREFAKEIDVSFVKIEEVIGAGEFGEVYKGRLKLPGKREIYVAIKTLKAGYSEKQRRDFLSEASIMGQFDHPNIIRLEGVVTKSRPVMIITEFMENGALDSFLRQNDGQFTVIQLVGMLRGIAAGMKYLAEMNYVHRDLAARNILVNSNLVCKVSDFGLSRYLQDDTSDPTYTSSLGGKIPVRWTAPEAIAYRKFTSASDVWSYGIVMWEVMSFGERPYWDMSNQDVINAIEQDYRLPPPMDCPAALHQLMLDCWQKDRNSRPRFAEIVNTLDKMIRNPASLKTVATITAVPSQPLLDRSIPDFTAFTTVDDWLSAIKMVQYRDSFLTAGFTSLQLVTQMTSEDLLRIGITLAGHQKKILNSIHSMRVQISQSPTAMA
Assay: phosphorylation enrichment, bacterial display (enrichment ratio); higher = better substrate or ligand; peptides without Tyr show the background
Class boundaries, taken from values of phosphorylation enrichment, are as follows: Low: < 0.4; Mid: ≥ 0.4 and < 0.6; High: ≥ 0.6

SEQUENCE_DATA	ASSIGNED_LABEL
RLKAKYAAATG [GLI3_Y933]	Mid
AEPPDYSPVTQ [ADGRG2_Y285_H290Q]	Mid
YGAHKYHPLPV [OAT_Y55_N54K]	Low

Looking at NPQKPYFIRLF [WAS_Y83_S82P_YF] , which class would you pick?
High

Tag the class for GHLYACDWISI [BEST1_Y227_Y227C]
High

The entry to classify is THLARYSDELR [APOA1_Y190_P189R] ; which class holds it?
Low

Sort into band: VMTVDYSKTVV [SETD2_Y770]
Low

Just checking, what class would you give MFNPYYGLFEY [NEDD4L_Y680] here?
High

###

Molecular target: FGFR3 (UniProt P22607)
Sequence (P22607 whole entry, looked up): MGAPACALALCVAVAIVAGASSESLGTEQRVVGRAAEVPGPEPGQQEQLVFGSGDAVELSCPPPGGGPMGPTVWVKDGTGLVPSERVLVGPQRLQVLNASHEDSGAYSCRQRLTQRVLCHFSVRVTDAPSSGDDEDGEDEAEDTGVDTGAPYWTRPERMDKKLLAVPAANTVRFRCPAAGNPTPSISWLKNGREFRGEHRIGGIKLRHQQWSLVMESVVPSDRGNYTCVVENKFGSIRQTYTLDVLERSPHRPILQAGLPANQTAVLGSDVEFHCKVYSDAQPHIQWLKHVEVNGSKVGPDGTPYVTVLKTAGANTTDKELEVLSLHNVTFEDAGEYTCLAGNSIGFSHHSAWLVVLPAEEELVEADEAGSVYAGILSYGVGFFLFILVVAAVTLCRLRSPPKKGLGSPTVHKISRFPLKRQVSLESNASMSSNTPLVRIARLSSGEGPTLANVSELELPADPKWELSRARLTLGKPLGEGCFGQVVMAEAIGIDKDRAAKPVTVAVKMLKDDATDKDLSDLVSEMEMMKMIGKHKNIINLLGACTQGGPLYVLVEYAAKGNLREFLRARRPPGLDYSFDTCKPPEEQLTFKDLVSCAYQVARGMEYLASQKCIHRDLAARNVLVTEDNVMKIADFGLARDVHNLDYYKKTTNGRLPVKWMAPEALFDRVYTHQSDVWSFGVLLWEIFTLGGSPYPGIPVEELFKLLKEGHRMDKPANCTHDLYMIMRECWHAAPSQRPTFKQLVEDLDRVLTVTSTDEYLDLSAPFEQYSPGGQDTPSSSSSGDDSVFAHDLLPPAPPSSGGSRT
Assay: phosphorylation enrichment, bacterial display (enrichment ratio); higher = better substrate or ligand; peptides without Tyr show the background
Short version: phosphorylation enrichment at least 0.7 is rule met, less is rule not met.

Use the examples below as a reference point.
SEQUENCE_DATA	ASSIGNED_LABEL
FEGAIYRKDIG [GART_Y417_V421I]	rule met
CATIHYNYMCN [TP53_Y234_T230A]	rule not met
ENAGFYFRISA	rule met

Please check the record KKCTTYIDCDL [ASPA_Y64_R63T] and state if its phosphorylation enrichment is at or above 0.7.
rule not met

Could you verify whether the entry VEDPEYAVTQP [STOML2_Y124_L129P] shows phosphorylation enrichment of no less than 0.7?
rule met

Check the entry EYLHKYKGFKI [SYNE1_Y6953_Q6951H] : does phosphorylation enrichment equal or exceed 0.7?
rule not met

Confirm if phosphorylation enrichment reported for the sequence GCRSKHVGLWG [KCNQ1_Y184_Y184H] is 0.7 or above.
rule not met

Decide: phosphorylation enrichment of GHLFAYNWISI [BEST1_Y227_D228N_YF] >= 0.7?
rule met

Determine whether this sequence has phosphorylation enrichment no lower than 0.7: LIFTNYEVGKD [GSTP1_Y112_A114V_YF]
rule met

Does EKLIQYCQSKG [AKR1B1_Y199] have a reported phosphorylation enrichment of at least 0.7?
rule not met

Check this sequence for phosphorylation enrichment at or above 0.7: VVHSSYDEIEG [SEC24A_Y263]
rule not met

API: above_or_equal(metric=phosphorylation enrichment, cutoff=0.7) for item SARFPYLMAEK [LDHB_Y173_R172P]
rule not met

Entry KDHLDYKFQPR [SOX9_Y172_P170L_YF] : is its phosphorylation enrichment no less than 0.7?
rule not met

Please check the record PVQAADQKVVA [HBB_Y131_Y131D] and state if its phosphorylation enrichment is at or above 0.7.
rule met

Could you please find out whether PDMHSYMVRYN [GRIN2D_Y732] has phosphorylation enrichment that meets 0.7 or exceeds it?
rule met

Identify whether the reported phosphorylation enrichment of the following sequence is 0.7 or greater: RAADYYSQQMA [GBP6_Y334]
rule met

State whether the measured phosphorylation enrichment reaches 0.7, counting equality as reaching it, for RMLREYQELMS [KRT74_Y425]
rule not met

Say whether VMTVDYSKTVV [SETD2_Y770] shows phosphorylation enrichment of 0.7 or more.
rule not met

Threshold query (phosphorylation enrichment >= 0.7) on DSRRDYVSQFE [APOA1_Y53_G50R]
rule not met
